src = patent EP2740727B1

# methodNotes: in vivo
# statedConditions: Albino Swiss, mouse, ip
In this section we review reported LD50 at 72 h values for a set of compounds.
measurementKind: LD50 at 72 h (mg/kg)

| molSmiles | quantityUnit | measured |
| --- | --- | --- |
| CCC(=O)NNC(=O)CSc1nc2ccc(Cl)cc2c(=O)n1-c1ccccc1 | mg/kg | 290 |
| O=C(CCc1ccccc1)NNC(=O)CSc1nc2ccc(Cl)cc2c(=O)n1Cc1ccccc1 | mg/kg | 290 |
| CC(=O)NNC(=O)CSc1nc2ccc(Cl)cc2c(=O)n1Cc1ccccc1 | mg/kg | 240 |
| CCC(=O)NNC(=O)CSc1nc2cc(OC)c(OC)cc2c(=O)n1Cc1ccccc1 | mg/kg | 168 |
| COc1cc2nc(SCC(=O)NN)n(Cc3ccccc3)c(=O)c2cc1OC | mg/kg | 360 |
